- Experimental target: human recombinant PDE9 protein (hsPDE9A1) (Homo sapiens, UniProt O76083)
- Sequence (O76083 whole entry): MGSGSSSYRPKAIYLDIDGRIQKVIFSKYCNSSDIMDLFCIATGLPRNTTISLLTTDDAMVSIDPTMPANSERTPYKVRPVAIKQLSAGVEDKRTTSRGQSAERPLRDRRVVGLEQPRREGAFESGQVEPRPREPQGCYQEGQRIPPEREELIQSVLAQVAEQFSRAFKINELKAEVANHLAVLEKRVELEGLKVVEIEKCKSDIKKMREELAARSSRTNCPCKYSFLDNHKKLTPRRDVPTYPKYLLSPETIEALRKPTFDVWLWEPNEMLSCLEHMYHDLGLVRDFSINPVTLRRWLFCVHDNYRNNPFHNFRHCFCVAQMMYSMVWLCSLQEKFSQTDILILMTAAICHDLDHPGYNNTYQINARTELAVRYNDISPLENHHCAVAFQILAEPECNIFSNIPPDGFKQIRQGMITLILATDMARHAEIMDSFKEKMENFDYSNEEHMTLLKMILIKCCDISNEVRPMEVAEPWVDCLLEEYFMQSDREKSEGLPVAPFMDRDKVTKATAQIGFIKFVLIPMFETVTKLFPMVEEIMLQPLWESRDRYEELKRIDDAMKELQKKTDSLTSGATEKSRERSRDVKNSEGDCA
- Assay overview: Measurement of PDE9-inhibiting activity ([3H]-cGMP hydrolysis)
- Stated conditions: human recombinant PDE9 expressed in COS-1 cells; 30° C., 30 minutes
Readout type: pIC50
Give bare numbers, as −log10 of the molar value.

Find the recorded pIC50 belonging to O=C(O)c1ccc2c(=O)[nH]c(Cc3ccccn3)nc2c1 [Example 6] and report it.
5.87

Source of measurements: patent US8101624B2
